I'd be grateful if you could share measured phytotoxicity rating AMATA for these entries.
- System: Amaranthus tuberculatus
- TEST SUMMARY: Post-emergence herbicidal evaluation, AMATA
- Format: in vivo
- TEST SETTINGS: 0.200 kg/ha, three weeks after treatment

CC1=CC(N(C(=O)COc2nnc(C(F)(F)F)s2)C(C)C)=CC(C)(C)C1 [Example 4]
1 (1 - Trace effect)
CCN(C(=O)COc1nnc(C(F)(F)C(F)(F)F)s1)C1=CC(C)(C)CC(C)=C1 [Example 8]
0 (0 - No effect)
CCc1nnc(OCC(=O)N(C)C2=CC(C)(C)CC(C)=C2)s1 [Example 5]
0 (0 - No effect)
CCc1nnc(OCC(=O)N(CC)C2=CC(C)(C)CC(C)=C2)s1 [Example 6]
0 (0 - No effect)

Challenge: Name the reported phytotoxicity rating AMATA value associated with the compound CCN(C(=O)COc1nnc(C(F)(F)F)s1)C1=CC(C)(C)CC(C)=C1 [Example 1]
Response given: 0 (0 - No effect)
